cell viability by entry:
System: WHIM30 (cells of a triple-negative basal-like breast cancer xenograft);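 also: PDX cells carrying CMV promoter-driven luciferase, viability read as total photon flux per second by IVIS imaging following D-luciferin, vehicle control 0.1% DMSO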
experiment: cell viability (% of vehicle); higher = less cytotoxic
cond: 10 µM; 72 h
valueKind: cell viability

INSERT INTO measurements (compound, valuekind, quantitativereadout) VALUES
  ('C=CCc1cc(OC)c(O)c(C(=O)NCCO)c1 [Alibendol]', 'cell viability', 138),
  ('CCC1OC(=O)C(C)C(OC2CC(C)(OC)C(O)C(C)O2)C(C)C(OC2OC(C)CC(N(C)C)C2O)C(C)(O)CC(C)CN(C)C(C)C(O)C1(C)O (centres undefined)', 'cell viability', 119),
  ('CCCNS(=O)(=O)Nc1ncnc(OCCOc2ncc(Br)cn2)c1-c1ccc(Br)cc1', 'cell viability', 101),
  ('Nc1ccn(C2OC(CO)C(O)C2(F)F)c(=O)n1 (centres undefined)', 'cell viability', 119);
